test: Selectivity index of compound towards human malignant cell lines; assay type: functional
observation_type: SI
I'd appreciate a reply containing only the number, no unit.

Worked cases, SI given:
Task: Please give the documented SI of COc1ccc(/C=C2\CCC/C(=C\c3ccc([N+](=O)[O-])cc3)C2=O)cc1OC
Output: 13

Task: Please give the documented SI of COc1cc(/C=C2\Cc3ccccc3/C(=C\c3ccc([N+](=O)[O-])cc3)C2=O)ccc1O
Output: 15

Continue with the next compound.
Task: Please give the documented SI of O=C1/C(=C/c2ccc(Cl)cc2)CCC/C1=C\c1ccc([N+](=O)[O-])cc1
Output: 46

---

Readings of SI for the listed compounds
assay: Selectivity index of compound towards human malignant cell lines; assay type: functional

Task: Please give the documented SI of COc1ccc(/C=C2\Cc3ccccc3/C(=C\c3ccc([N+](=O)[O-])cc3)C2=O)cc1
Output: > 17

Further cases:
Task: Please give the documented SI of COc1ccc(/C=C2\Cc3ccccc3/C(=C\c3ccc([N+](=O)[O-])cc3)C2=O)cc1OC
Output: > 159

Task: Please give the documented SI of O=C1/C(=C/c2ccc(O)cc2)CCC/C1=C\c1ccc([N+](=O)[O-])cc1
Output: ~3.8

Task: Please give the documented SI of COc1cccc2c1C(=O)c1c(O)c3c(c(O)c1C2=O)C[C@@](O)(C(=O)CO)C[C@@H]3O[C@H]1C[C@H](N)[C@H](O)[C@H](C)O1 [DOXORUBICIN]
Output: > 235
